System: SK-OV-3 ovarian
TEST_DESCRIPTION: NCI tumour cell line growth inhibition, 48 h; in the data active = GI50 below about 0.43 µM; inactive = the rest
Allowed answers: active, inactive

Solved cases (5 shown):
CC/C=C\C[C@H](F)C/C=C1/C(=O)C=C[C@@H]1C/C=C\CCCC(=O)OC : inactive
N#Cc1c(NCc2ccccc2)nc(NCc2ccccc2)c(C#N)c1-c1ccc(O)cc1 : inactive
NC(=NCc1ccccc1)C(N=Nc1ccccc1)C(=O)NCc1ccccc1 (stereo not given) : inactive
CC(=O)O[C@H]([C@H](OC(C)=O)[C@H](C)OC(C)=O)[C@@H](/C=C/[C@@H]1CC=CC(=O)O1)OC(C)=O : inactive
O=C1/C(=C/c2ccccc2)CN(C(=O)C(Cl)Cl)C/C1=C\c1ccccc1 : inactive

Write down the call the test reported for this molecule. Item: `CC1CCN(Cc2ccc(NC(=O)c3cc4ccc5cccnc5c4[nH]3)cc2)CC1` inactive

Test call, this molecule: `C=C(CN1CCN(c2ccc(C(F)(F)F)cc2)CC1)c1ccc(C(=O)Nc2ccccc2N)cc1` inactive

Name the outcome recorded for `CCCCCCCCCCCCCCCCCc1nccn1CCOCCO` in the assay. inactive

What did this assay record as the result for CCN(CC)CCCC(C)Nc1ccnc2cc(Cl)ccc12 (stereo not given) ? inactive

# lookup: test call for `COc1cc2c(c(OC)c1OC)-c1ccc(O)cc1[C@@H](NC(C)=O)CC2` active

====

Test system: ACHN renal
TEST_DESCRIPTION: NCI tumour cell line growth inhibition, 48 h
// values below are reported TGI
Your answer is read as µM, so omit the unit and give the number.

Cc1cccc(-n2c(N)c(-c3nc4ccccc4[nH]3)sc2=S)c1 : 99
CCCCCCCCCCCC(=O)OC[C@H](C[As](=O)(O)O)OC(=O)CCCCCCCCCCC : 9.07
CSC(=NC#N)S/C=C/C(=O)c1ccccc1 : 76.9
CCOC(=O)/C=C(\C(=O)OCC)n1ccc(=O)n(Cc2cnnn2CCCCOC(C)=O)c1=O : 5.52
c1cc(-c2ccc(-c3ccc(-c4ccc(-c5ccncc5)o4)cc3)o2)ccn1 : 64.6
CC(=O)OC1CCC2(C)C(CCC3C2CC(=O)C2(C)C3CC(N3CC3)C2C(C)=O)C1 (stereo not given) : 29.6
O=c1oc2ccc(I)cc2c(=O)n1-c1ccc(F)cc1F : 8.42

Query compound follows.
Dear colleague, I am looking for the recorded TGI of the following compound: O=C1C(=C(C(F)(F)Cl)C(F)(F)Cl)C2CCC1C2 (stereo not given) 3.32

====

Test system: SN12C renal
TEST_DESCRIPTION: NCI tumour cell line growth inhibition, 48 h
MEASURED_PROPERTY: TGI (µM)
The figure you give is taken to be in µM; do not add the unit.

O=C(/C=C/c1ccc(Cl)cc1)c1ccccc(=O)c1O : 4.58
CC(=O)OC(CC1(C)C(C)CCC23COC(=O)C2=CCCC31)c1ccoc1 (centres undefined) : 71.8
CCCc1n(Cc2ccc3ccccc3c2)cc[n+]1Cc1ccc2ccccc2c1 : 2.53
Oc1ccc(O)c(-c2cn3c(n2)SCC3)c1 : 29.2
CCCc1cn2c(/C=N/N=C(N)N)c(-c3cccc([N+](=O)[O-])c3)nc2s1 : 2.58

# lookup: TGI of `Cc1c[n+]2c3ccccc3c3ccccc3c2s1` 15.5

====

System: SK-MEL-28 melanoma
TEST_DESCRIPTION: NCI tumour cell line growth inhibition, 48 h
MEASURED_PROPERTY: GI50

Answered examples (3):
C=C(CN1CCN(c2ccc(C(F)(F)F)cc2)CC1)c1ccc(C(=O)Nc2ccccc2N)cc1 : > 100000 nM
CCCCCCCCCCCCCCCC1=NCCN1 : 1880 nM
COc1cc2c(c(OC)c1OC)-c1ccc(O)cc1[C@@H](NC(C)=O)CC2 : 52.8 nM

Requested read-out GI50, target or system SK-MEL-28 melanoma, entry COc1cc(C2CC(c3cccc(Nc4ccnc5cc(Cl)ccc45)c3)=NN2c2ccc(Cl)cc2)cc(OC)c1OC (stereo unspecified) 4540 nM

I'm curious: which GI50 was measured for `N=C(N)c1ccc(-c2ccc(/C=C/c3ccccc3)s2)cc1` tested on SK-MEL-28 melanoma? 1650 nM

# get_value(readout= GI50, system= SK-MEL-28 melanoma) for `COc1ccc2c3c(Nc4cccc(/C(C)=N\O)c4)[nH]c4ccccc4c-3c(N=O)c2c1` 12700 nM
